tested on: SK-MEL-2; test: NCI tumour cell line growth inhibition, 48 h
Activity calls are given as the source filed them. Cut-off read from the data, not from the text of the source: active = GI50 up to about 1.1 µM and inactive = higher.
Measured GI50 values are reported for all entries that follow.

Solved cases below.
>  <compound>
CCOP(=O)(OCC)C1CCCCOC1=O (stereo unspecified)

>  <GI50>
> 100 µM (inactive)

$$$$
>  <compound>
O=[N+]([O-])c1ccc(NN=C2c3ccccc3Cc3ccccc32)c([N+](=O)[O-])c1

>  <GI50>
3.44 µM (inactive)

$$$$
>  <compound>
CCCCSC1=N/C(=C\c2ccccc2O)C(Cl)=N1

>  <GI50>
> 100 µM (inactive)

$$$$
>  <compound>
CC(=O)NC1C(OCc2ccccc2)OC(CO)C(O)C1OCC(=O)N[C@@H](C)C(=O)N[C@H](CCC(=O)NCCCCNc1c2ccccc2nc2cccc([N+](=O)[O-])c12)C(N)=O (stereo partly specified)

>  <GI50>
2.51 µM (inactive)

$$$$
>  <compound>
C[C@]12CCC(=O)C(O)=C1CC[C@@H]1C2CC[C@]2(C)Nc3c(cnn3-c3ccccc3)CC12 (stereo partly specified)

>  <GI50>
> 100 µM (inactive)

$$$$
>  <compound>
[N-]=[N+]=CC(=O)C1(C(=O)C=[N+]=[N-])CC1

>  <GI50>
> 100 µM (inactive)

$$$$

Fill in: GI50 of Cc1ccc2c(=O)c(-c3nnc(N)s3)c[nH]c2n1 is ___
> 100 µM (inactive)

Fill in: GI50 of O=C(c1ccc(Cl)cc1)C(O)c1ccc(Cl)cc1 (stereo unspecified) is ___
> 100 µM (inactive)

Fill in: GI50 of COCC(=O)OC1CCn2c1nc1c2C(=O)C(C)=C(NC(C)=O)C1=O (stereo unspecified) is ___
4.04 µM (inactive)

Fill in: GI50 of CCOc1ccc(NC(=O)C2=C(C)NC(C)=C(C(=O)Nc3ccc(OCC)cc3)C2c2ccc(O)c(OC)c2)cc1 is ___
64.6 µM (inactive)

Fill in: GI50 of O=c1[nH]c(=S)[nH]c(-c2ccccc2)c1Cc1c(O)ccc2ccccc12 is ___
20.4 µM (inactive)
